B1: minF1; a variant is named by its letters at N, in order (parent)
chain: GAGACCGCAACTGAAAAGTTGTTNNNNAANNNNNGGNTNAATTTCTGCACGTAGAAGCAAAAGGC

variants of: B1; test: fraction ligated after 30 min (ligated reads / total reads); higher = more ligase activity; conditions: with F1*subA RNA substrate (template-directed ligation), 42 °C
Assignment: determine reported fraction ligated for the given variants.
Output: the number by itself.

Input: Tell me fraction ligated reported for GAGACCGCAACTGAAAAGTTGTTATCAGAAATATGGGTTGATTTCTGCACGTAGAAGCAAAAGGC [ATCAAATATGT A28G A40G]
Output: 0.00354

Input: Read the entry GAGACCGCAACTGAAAAGTTGTTTCAAAATGGTGGGTTGAATTTCTGCACGTAGAAGCAAAAGGC [TCAATGGTGTG] and write its reported fraction ligated.
Output: 0.00313

Input: Supply fraction ligated value. Item: GAGACCGCAACTGAAAAGTTGTTATCGAATGGTGGGTTGAATTTCTGCACGTAGAAGCAAAAGGC [ATCGTGGTGTG]
Output: 0.00665

Input: Answer with the recorded fraction ligated for the variant listed here: GAGACCGCAACTGAAAAGTTGTTTCAGAAATGGATGGGTTATTTCTGCACGTAGAAGCAAAAGGC [TCAGATGGAGT G35T T38G A40T]
Output: 0.00171

Input: Please report the measured fraction ligated for GAGACCGCAACTGAAAAGTTGTTATCAGAATGGTGGGTTGATTTCTGCACGTAGAAGCAAAAGGC [ATCAATGGTGT A28G A40G]
Output: 0.00763

Input: Output measured fraction ligated for this item: GAGACCGCAACTGAAAAGTTGTTCAGAAATGGATGGGTTAATTTCTGCACGTAGAAGCAAAAGGC [CAGATGGATGT]
Output: 0.00272

Input: Return value of fraction ligated for input GAGACCGCAACTGAAAAGTTGTTAAGAAATGGATGGGTTGATTTCTGCACGTAGAAGCAAAAGGC [AAGATGGATGT A40G] , no commentary.
Output: 0.00604

Input: Return the recorded fraction ligated value; entry: GAGACCGCAACTGAAAAGTTGTATCGAAAGGATGGGTTGAATTTCTGCACGTAGAAGCAAAAGGC [TCGAGGATGTG T23A]
Output: 0

Input: # return recorded fraction ligated for entry GAGACCGCAACTGAAAAGTTGTTATCAGAAATGTGGGTTGATTTCTGCACGTAGAAGCAAAAGGC [ATCAAATGTGT A28G A40G]
Output: 0.00666

Input: Supply measured fraction ligated of GAGACCGCAACTGAAAAGTTGTACAGAAATGGATGGGTTGATTTCTGCACGTAGAAGCAAAAGGC [CAGATGGATGT T23A A40G] in your reply.
Output: 0.0214

Input: Read off the recorded fraction ligated for GAGACCGCAACTGAAAAGTTGTTACGAAATGGTGGGTTGAATTTCTGCACGTAGAAGCAAAAGGC [ACGATGGTGTG]
Output: 0.00555

Input: Tell me its fraction ligated given GAGACCGCAACTGAAAAGTTGTTATCAGAAATGATGGTTAATTTCTGCACGTAGAAGCAAAAGGC [ATCAAATGAGT A28G G35T] as the entry.
Output: 0.00393

Input: State its fraction ligated: GAGACCGCAACTGAAAAGTTGTTATCAAAAGGAGGGTTGAATTTCTGCACGTAGAAGCAAAAGGC [ATCAAGGAGTG]
Output: 0.00266

Input: In one line, give reported fraction ligated of the entry GAGACCGCAACTGAAAAGTTGTTACAGAAATGTGGGTTGAATTTCTGCACGTAGAAGCAAAAGGC [ACAGATGTGTG] .
Output: 0.00297

Input: Supply fraction ligated value. Item: GAGACCGCAACTGAAAAGTTGTTATAGAAATGGAGGGTTGATTTCTGCACGTAGAAGCAAAAGGC [ATAGATGGAGT A40G]
Output: 0.00598

Input: Given the variant GAGACCGCAACTGAAAAGTTGTTACGAAATGGATGGGTTAATTTCTGCACGTAGAAGCAAAAGGC [ACGATGGATGT] , write its reported fraction ligated.
Output: 0.0146

Input: Annotate the variant GAGACCGCAACTGAAAAGTTGTTATAGATGGATGGGTTGAATTTCTGCACGTAGAAGCAAAAGGC [ATAGGGATGTG A29T] with its measured fraction ligated.
Output: 0.0314

Input: For the variant GAGACCGCAACTGAAAAGTTGTTTCGAAAGGATGGGTTGAATTTCTGCACGTAGAAGCAAAAGGC [TCGAGGATGTG] , report fraction ligated.
Output: 0.00582

Input: Return reported fraction ligated. Input variant: GAGACCGCAACTGAAAAGTTGTTATCGAAATGGAGGGTTGATTTCTGCACGTAGAAGCAAAAGGC [ATCGATGGAGT A40G]
Output: 0.00946

Input: Give the measured fraction ligated for GAGACCGCAACTGAAAAGTTGTATCAGAATGATGGGTTGAATTTCTGCACGTAGAAGCAAAAGGC [TCAGTGATGTG T23A]
Output: 0.00342

Input: Look up fraction ligated of GAGACCGCAACTGAAAAGTTGTTATAGAATGGAGGGTTGAATTTCTGCACGTAGAAGCAAAAGGC [ATAGTGGAGTG] and report it.
Output: 0

Input: Return fraction ligated (reported value) for this variant: GAGACCGCAACTGAAAAGTTGTTATCAGATGGAGGGTTGAATTTCTGCACGTAGAAGCAAAAGGC [ATCATGGAGTG A28G]
Output: 0.00478

Input: In one line, give reported fraction ligated of the entry GAGACCGCAACTGAAAAGTTGTATCAGAAAGGATGGGTTAATTTCTGCACGTAGAAGCAAAAGGC [TCAGAGGATGT T23A] .
Output: 0.00218

Input: Dear colleague, please send me the reported fraction ligated for GAGACCGCAACTGAAAAGTTGTTCAAAATGGATGGGTTGAATTTCTGCACGTAGAAGCAAAAGGC [CAAAGGATGTG A29T] when you can.
Output: 0.00429

Input: Please give measured fraction ligated of the following entry: GAGACCGCAACTGAAAAGTTGTACAGAAATGGTGGGTTGAATTTCTGCACGTAGAAGCAAAAGGC [CAGATGGTGTG T23A]
Output: 0.0045

Input: Report measured fraction ligated; entry is GAGACCGCAACTGAAAAGTTGTTTCAGAAAGGATGGTTGAATTTCTGCACGTAGAAGCAAAAGGC [TCAGAGGATTG]
Output: 0.00228

Input: Determine its reported fraction ligated: GAGACCGCAACTGAAAAGTTGTTATCGAAATGGGGGTTGAATTTCTGCACGTAGAAGCAAAAGGC [ATCGATGGGTG]
Output: 0

Input: Query fraction ligated for GAGACCGCAACTGAAAAGTTGTTATCAAAAGGATGGGTTGATTTCTGCACGTAGAAGCAAAAGGC [ATCAAGGATGT A40G]
Output: 0.0124

Input: Please give measured fraction ligated of the following entry: GAGACCGCAACTGAAAAGTTGTTATCAGAATGGATGGTTGATTTCTGCACGTAGAAGCAAAAGGC [ATCAATGGAGT A28G G35T A40G]
Output: 0.0474

Input: Report measured fraction ligated; entry is GAGACCGCAACTGAAAAGTTGTATAAAATGGATGGGTTGAATTTCTGCACGTAGAAGCAAAAGGC [TAAAGGATGTG T23A A29T]
Output: 0.00526

Input: Report fraction ligated for GAGACCGCAACTGAAAAGTTGTATCAGAAATGGAGGGTTAATTTCTGCACGTAGAAGCAAAAGGC [TCAGATGGAGT T23A]
Output: 0.00368

Input: Return value of fraction ligated for input GAGACCGCAACTGAAAAGTTGTTAAGAATGGATGGGTTGAATTTCTGCACGTAGAAGCAAAAGGC [AAGAGGATGTG A29T] , no commentary.
Output: 0.00554

Input: Give me measured fraction ligated, please, for this variant: GAGACCGCAACTGAAAAGTTGTTATAGAATGATGGGTTGAATTTCTGCACGTAGAAGCAAAAGGC [ATAGTGATGTG]
Output: 0.00472

Input: Give the reported fraction ligated for this variant. GAGACCGCAACTGAAAAGTTGTTCAGAAATGATGGGTTGAATTTCTGCACGTAGAAGCAAAAGGC [CAGATGATGTG]
Output: 0.00402

Input: Query fraction ligated for GAGACCGCAACTGAAAAGTTGTTATCAGATGGATGGGTTGATTTCTGCACGTAGAAGCAAAAGGC [ATCATGGATGT A28G A40G]
Output: 0.0551

Input: Please indicate fraction ligated recorded for GAGACCGCAACTGAAAAGTTGTACAGAAAGGATGGGTTGAATTTCTGCACGTAGAAGCAAAAGGC [CAGAGGATGTG T23A]
Output: 0.00547

Input: Give reported fraction ligated value for GAGACCGCAACTGAAAAGTTGTTTAGAAATGGATGGTTGAATTTCTGCACGTAGAAGCAAAAGGC [TAGATGGATTG]
Output: 0.00552

Input: Supply fraction ligated value. Item: GAGACCGCAACTGAAAAGTTGTTATCAGAAAGATGGTTGAATTTCTGCACGTAGAAGCAAAAGGC [ATCAAAGATTG A28G]
Output: 0.00113
